target: FP (Homo sapiens); assay: Other receptors Ca2+ assay, FP; conditions: FP receptor
Sequence (P43088 whole entry): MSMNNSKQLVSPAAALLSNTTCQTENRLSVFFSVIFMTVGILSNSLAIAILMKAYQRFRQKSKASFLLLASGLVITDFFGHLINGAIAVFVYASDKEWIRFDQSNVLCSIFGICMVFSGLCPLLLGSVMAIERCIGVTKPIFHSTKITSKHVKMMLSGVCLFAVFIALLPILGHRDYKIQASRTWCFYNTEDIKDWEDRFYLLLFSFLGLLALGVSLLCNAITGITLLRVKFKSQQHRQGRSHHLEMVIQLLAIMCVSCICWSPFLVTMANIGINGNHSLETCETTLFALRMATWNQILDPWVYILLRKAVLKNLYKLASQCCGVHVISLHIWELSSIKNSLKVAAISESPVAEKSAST
propertyMeasured: pEC50
By convention, pEC50 is the negative base-10 log of a molar concentration.

I'd like to know its pEC50. The compound in question is `C=CCCCCCC[C@@H]1[C@@H](CCCc2ccc(C(=O)O)s2)[C@H](Cl)C[C@H]1O`
5.12

###

target: DP (Homo sapiens, UniProt Q13258); assay: Other receptors Ca2+ assay, DP; settings: DP receptor
Sequence (Q13258 whole entry): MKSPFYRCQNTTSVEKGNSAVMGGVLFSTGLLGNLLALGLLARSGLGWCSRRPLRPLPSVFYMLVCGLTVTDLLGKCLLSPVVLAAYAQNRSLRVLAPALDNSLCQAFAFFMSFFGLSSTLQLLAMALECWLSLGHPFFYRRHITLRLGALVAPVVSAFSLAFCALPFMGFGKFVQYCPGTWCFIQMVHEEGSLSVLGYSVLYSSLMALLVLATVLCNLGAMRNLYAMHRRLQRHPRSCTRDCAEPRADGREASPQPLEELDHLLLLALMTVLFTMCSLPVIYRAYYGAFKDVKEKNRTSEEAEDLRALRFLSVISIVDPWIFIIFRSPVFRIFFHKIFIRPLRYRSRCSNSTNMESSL
propertyMeasured: EC50 (µM)

INSERT INTO measurements (molecule, unitname, obsvalue) VALUES
  ('CCCCCC(O)/C=C/[C@@H]1[C@@H](CCCc2ccc(C(=O)O)s2)[C@H](Cl)C[C@H]1O (single isomer, unassigned) [Entry 16]', 'µM', 7.73);

[a] O=C(O)c1ccc(CCC[C@@H]2[C@@H](CCCCCCCCO)[C@H](O)C[C@H]2Cl)s1
[b] O=C(O)c1ccc(CCC[C@@H]2[C@@H](C=CCCCCCCO)[C@H](O)C[C@H]2Cl)s1
[c] CCCCCCCCC=C[C@@H]1[C@@H](CCCc2ccc(C(=O)O)s2)[C@H](Cl)C[C@H]1O
Please list these molecules in decreasing order of EC50. The reply should contain the labels ordered as requested.
c, a, b
(c: 10.5 µM, a: 6.13 µM, b: 1 µM)

###

molecular target: UniProt P43116; test: EP2 Ca2+ signal assay; format: cell-based
Sequence (P43116 whole entry): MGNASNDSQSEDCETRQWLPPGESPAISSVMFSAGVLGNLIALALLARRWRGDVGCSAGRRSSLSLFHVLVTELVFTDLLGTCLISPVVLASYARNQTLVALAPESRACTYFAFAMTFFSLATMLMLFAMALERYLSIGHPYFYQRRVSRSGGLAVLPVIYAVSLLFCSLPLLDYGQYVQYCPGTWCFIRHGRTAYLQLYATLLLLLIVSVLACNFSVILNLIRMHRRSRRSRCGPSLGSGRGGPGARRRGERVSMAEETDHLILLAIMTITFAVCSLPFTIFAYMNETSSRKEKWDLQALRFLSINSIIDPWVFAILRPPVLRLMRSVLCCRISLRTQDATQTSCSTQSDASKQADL
propertyMeasured: EC50 (nM)

INSERT INTO measurements (molecule, obsvalue) VALUES
  ('C=CCCCCCC[C@@H]1[C@@H](CCCc2ccc(C(=O)O)s2)[C@H](Cl)C[C@H]1O', 7);

[1] O=C(O)c1ccc(CCC[C@@H]2[C@@H](CCCCCCCCO)[C@H](O)C[C@H]2Cl)s1
[2] O=C(O)c1ccc(CCC[C@@H]2[C@@H](C=CCCCCCCO)[C@H](O)C[C@H]2Cl)s1
// max by EC50 over [ 1 , 2 ] Use the label to indicate which entry you chose.
2
(2: 531 nM, 1: 69 nM)

[P] CCCCC[C@@H]1[C@@H](CCCc2ccc(C(=O)O)s2)[C@H](Cl)C[C@H]1O
[Q] CCCCCC(O)/C=C/[C@@H]1[C@@H](CCCc2ccc(C(=O)O)s2)[C@H](Cl)C[C@H]1O (single isomer, unassigned) [Entry 16]
[R] CCCCCCCC=C[C@@H]1[C@@H](CCCc2ccc(C(=O)O)s2)[C@H](Cl)C[C@H]1O
[S] CCCCCCCCC=C[C@@H]1[C@@H](CCCc2ccc(C(=O)O)s2)[C@H](Cl)C[C@H]1O
Order the records, beginning with the lowest EC50 and ending with the highest. The reply should contain the labels ordered as requested.
R, Q, P, S
(R: 15 nM, Q: 26 nM, P: 74 nM, S: 512 nM)

###

target: UniProt Q13258; experiment: Other receptors Ca2+ assay, DP; conditions: DP receptor
propertyMeasured: EC50 (µM)

[A] O=C(O)c1ccc(CCC[C@@H]2[C@@H](CCCCCCCO)[C@H](O)C[C@H]2Cl)s1
[B] O=C(O)c1ccc(CCC[C@@H]2[C@@H](C=CCCCCCO)[C@H](O)C[C@H]2Cl)s1
Hey, between A and B which has a smaller measured EC50? Use the label to indicate which entry you chose.
B
(B: 0.253 µM, A: 1.95 µM)

[P] CCCC/C=C/CC[C@@H]1[C@@H](CCCc2ccc(C(=O)O)s2)[C@H](Cl)C[C@H]1O
[Q] CCCCCCCC=C[C@@H]1[C@@H](CCCc2ccc(C(=O)O)s2)[C@H](Cl)C[C@H]1O
// max by EC50 over [ P , Q ] Use the label to indicate which entry you chose.
Q
(Q: 11.7 µM, P: 2.8 µM)

###

molecular target: EP4 (Homo sapiens, UniProt P35408); assay: EP4 Ca2+ signal assay
Sequence (P35408 whole entry): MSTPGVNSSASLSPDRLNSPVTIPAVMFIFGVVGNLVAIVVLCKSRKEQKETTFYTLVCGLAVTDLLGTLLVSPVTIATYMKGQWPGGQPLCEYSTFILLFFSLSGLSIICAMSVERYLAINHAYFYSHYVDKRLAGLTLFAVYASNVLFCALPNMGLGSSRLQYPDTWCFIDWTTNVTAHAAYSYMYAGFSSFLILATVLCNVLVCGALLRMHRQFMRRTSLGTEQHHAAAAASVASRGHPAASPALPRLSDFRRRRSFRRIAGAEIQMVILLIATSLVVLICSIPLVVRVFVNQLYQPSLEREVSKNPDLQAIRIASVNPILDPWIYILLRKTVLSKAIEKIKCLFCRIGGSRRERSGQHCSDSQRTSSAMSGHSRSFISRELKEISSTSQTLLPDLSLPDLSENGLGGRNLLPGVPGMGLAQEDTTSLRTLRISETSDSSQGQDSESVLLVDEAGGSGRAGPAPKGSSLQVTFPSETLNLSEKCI
pEC50: −log10 of the molar value.
propertyMeasured: pEC50

INSERT INTO results (smilesentry, obsvalue) VALUES
  ('O=C(O)c1ccc(CCC[C@@H]2[C@@H](C=CCCCCCO)[C@H](O)C[C@H]2Cl)s1', 4.50),
  ('CCCCCC[C@@H]1[C@@H](CCCc2ccc(C(=O)O)s2)[C@H](Cl)C[C@H]1O', 5.03);

[a] CCCC=C[C@@H]1[C@@H](CCCc2ccc(C(=O)O)s2)[C@H](Cl)C[C@H]1O
[b] CCCCCCCCC=C[C@@H]1[C@@H](CCCc2ccc(C(=O)O)s2)[C@H](Cl)C[C@H]1O
[c] CCCCCCC[C@@H]1[C@@H](CCCc2ccc(C(=O)O)s2)[C@H](Cl)C[C@H]1O
Please list these compounds in decreasing order of pEC50. The reply should contain the labels ordered as requested.
c, a, b
(c: 5.12, a: 4.83, b: 4.47)

###

target: EP4 (Homo sapiens, UniProt P35408); assay: EP4 Ca2+ signal assay
The following molecules are shown together with reported EC50 values.

INSERT INTO assay_data (smilesentry, obsvalue) VALUES
  ('O=C(O)c1ccc(CCC[C@@H]2[C@@H](CCCCCCCCO)[C@H](O)C[C@H]2Cl)s1', '> 10 µM');

I'd like to know its EC50. The molecule in question is `CCCCCCCC=C[C@@H]1[C@@H](CCCc2ccc(C(=O)O)s2)[C@H](Cl)C[C@H]1O`
> 10 µM

I'd like to know its EC50. The molecule in question is `CCCCCCCCC[C@@H]1[C@@H](CCCc2ccc(C(=O)O)s2)[C@H](Cl)C[C@H]1O`
> 10 µM

I'd like to know its EC50. The molecule in question is `CCCCCCCCCC[C@@H]1[C@@H](CCCc2ccc(C(=O)O)s2)[C@H](Cl)C[C@H]1O`
> 10 µM
